Examples of compounds with documented MIC follow.
- Tested on: Streptococcus pneumoniae
- Procedure summary: Antibacterial activity against macrolide-, quinolone-susceptible and penicillin-intermediate Streptococcus pneumoniae HMC 100 harboring S81Y mutation in quinolone-resistant determining regions of GyrA gene after 22 passages with moxifloxacin measured after 10 daily antibiotic-free subculturing by multi-step resistance selection technique
- Assay type: functional
Form entry: value (µg/mL) — number only.

CC[C@H]1OC(=O)[C@H](C)[C@@H](O[C@H]2C[C@@](C)(OC)[C@@H](O)[C@H](C)O2)[C@H](C)[C@@H](O[C@@H]2O[C@H](C)C[C@H](N(C)C)[C@H]2O)[C@](C)(O)C[C@@H](C)CN(C)[C@H](C)[C@@H](O)[C@]1(C)O :: 0.03
COc1c(N2CCNC(C)C2)c(F)cc2c(=O)c(C(=O)O)cn(C3CC3)c12 (stereo not given) :: 4
CO/N=C1\CN(c2nc3c(cc2F)c(=O)c(C(=O)O)cn3C2CC2)CC1CN (stereo not given) :: 0.25
COc1c(N2CC3(CC3)[C@](C)(N)C2)c(F)cc2c(=O)c(C(=O)O)cn([C@@H]3C[C@@H]3F)c12.O :: 0.5

The record that follows has no MIC shown yet.
Param readout= MIC; system= Streptococcus pneumoniae; entry= COc1c(N2C[C@@H]3CCCN[C@@H]3C2)c(F)cc2c(=O)c(C(=O)O)cn(C3CC3)c12 ; returns value.
1

---

Examples of molecules with documented MIC follow.
- Test system: Streptococcus pneumoniae
- Procedure summary: Antibacterial activity against penicillin-resistant and quinolone-susceptible Streptococcus pneumoniae HMC 3583 expressing mefA and harboring S81F mutation in quinolone-resistant determining regions of GyrA gene and I460V, D435N mutation in QRDR of ParE gene after 46 passages with gatifloxacin measured after 10 daily antibiotic-free subculturing by multi-step resistance selection technique
- Type: functional
Form entry: value (µg/mL) — number only.

Please review the entries below; each comes with its answer.
CO/N=C1\CN(c2nc3c(cc2F)c(=O)c(C(=O)O)cn3C2CC2)CC1CN (stereo not given) :: 8
COc1c(N2CCNC(C)C2)c(F)cc2c(=O)c(C(=O)O)cn(C3CC3)c12 (stereo not given) :: 8
COc1c(N2CC3(CC3)[C@](C)(N)C2)c(F)cc2c(=O)c(C(=O)O)cn([C@@H]3C[C@@H]3F)c12.O :: 1
CC[C@H]1OC(=O)[C@H](C)[C@@H](O[C@H]2C[C@@](C)(OC)[C@@H](O)[C@H](C)O2)[C@H](C)[C@@H](O[C@@H]2O[C@H](C)C[C@H](N(C)C)[C@H]2O)[C@](C)(O)C[C@@H](C)CN(C)[C@H](C)[C@@H](O)[C@]1(C)O :: 0.25

Fill in the blank: the reported MIC of COc1c(N2C[C@@H]3CCCN[C@@H]3C2)c(F)cc2c(=O)c(C(=O)O)cn(C3CC3)c12 is ____.
4

---

- System: Streptococcus pneumoniae
- Procedure summary: Antibacterial activity against Streptococcus pneumoniae HMC 3041 after 50 passages by broth microdilution method
- Type: functional
Examples of compounds with documented MIC follow.
// unit must come after the numeric part

Please review the entries below; each comes with its answer.
COc1c(N2CC3(CC3)[C@](C)(N)C2)c(F)cc2c(=O)c(C(=O)O)cn([C@@H]3C[C@@H]3F)c12.O :: 0.125 µg/mL
CO/N=C1\CN(c2nc3c(cc2F)c(=O)c(C(=O)O)cn3C2CC2)CC1CN (centres undefined) :: 0.03 µg/mL

Fill in the blank: the reported MIC of COc1c(N2CCNC(C)C2)c(F)cc2c(=O)c(C(=O)O)cn(C3CC3)c12 (centres undefined) is ____.
0.5 µg/mL

Fill in the blank: the reported MIC of COc1c(N2C[C@@H]3CCCN[C@@H]3C2)c(F)cc2c(=O)c(C(=O)O)cn(C3CC3)c12 is ____.
0.25 µg/mL

Data provenance: ChEMBL document CHEMBL1151449
